Target: pooled human IgG
Documented Enzyme Activity Endpoint Assay (purified): scIgG across a set of proteins
READOUT NAME: Enzyme Activity Endpoint Assay (purified): scIgG (ng/µL)

protein="PRT-330 (protein) MTITSVWTKGVTPPTPEDFRENNEDVLHAPYVANQGWYDITKTFDGKDNLLCGAATAGNMLHWWFDQNKEEIERYLKKHPEKQKIIFGNQELFDVKAAIDTKDSQTNSKLFDYFRDKAFPGLSARQLGVFPDLVLDMFINGYYLNLGKTQSTDVNRPYQDKDKRGGIFDAVFTRGVQTTLLTARHDLKNKGLNEISDLIKQELTEGKALALSHTYANVRINHVINLWGADFDAEGNLIAIYVTDSDANASIGMKKYFVGRNANGKVAISAKKIEGDNIGAQVLGLFTLSTGQDQWQKLS" experimental_result=0
protein="PRT-119 (protein) MRNATEAYAKETPKQITSVWTKGVTPPTPEQFRYNNEDVFHAPYVANQGWYDITKTFDGKDNLLCGAATAGNMLHWWFDQNKTEIEKYLSKHPEKQKIIFNNQELFDLKAAIDTKDSQTNSQLFNYFRDKAFPNLSARQLGVMPDLVLDMFINGYYLNVTKTQSTDVNRPYQDKDKRGGIFDAVFTRGDQTKLLTARHDLGNKSLNEISQLIKQELQEGKALALSHTYANVRISHVINLWGADFDAEGNLEAIYVTDSDSNASIGMKKYYVGVNSAGKVAISAKKIEGENIGAQVLGLFTLSSGKDIWQKLS" experimental_result=133
